// provenance: patent US20230330254A1

- assayed-system: UniProt:P43220
- method: Human GLP1R cAMP accumulation assay
- Format: cell-based
- Parameters: HEK293 cells over-expressing full length human GLP-1R were utilized; expressed in transfected cells; host or cells: HEK293 (HEK293/hGLP1R)
- details: HEK293/hGLP1R cells; Table 4; read-out: cAMP EC50
readout-type: EC50 (nM)
Give bare numbers, in nM.

Per the record, CCc1cc(OCCCCn2cc(COCCOCCOCCOCCNC(=O)OC[C@@H]3[C@@H]4CCC#CCC[C@@H]43)nn2)ccc1-c1ccc(C[C@H](NC(=O)[C@H](CC(=O)O)NC(=O)[C@H](CO)NC(=O)[C@@H](NC(=O)[C@](C)(Cc2ccccc2F)NC(=O)[C@@H](NC(=O)CNC(=O)[C@H](Cc2nn[nH]n2)NC(=O)C(C)(C)C(=O)NCCc2cnc[nH]2)[C@@H](C)O)[C@@H](C)O)C(=O)N[C@@H](CCCc2cc(C)cc(C)c2)C(N)=O)cc1 [LP9, BCN-PEG4-triazole-P8] has EC50 of 0.078

----------
- assayed-system: human GLP1R (Homo sapiens, UniProt P43220)
- Sequence (P43220 24-463): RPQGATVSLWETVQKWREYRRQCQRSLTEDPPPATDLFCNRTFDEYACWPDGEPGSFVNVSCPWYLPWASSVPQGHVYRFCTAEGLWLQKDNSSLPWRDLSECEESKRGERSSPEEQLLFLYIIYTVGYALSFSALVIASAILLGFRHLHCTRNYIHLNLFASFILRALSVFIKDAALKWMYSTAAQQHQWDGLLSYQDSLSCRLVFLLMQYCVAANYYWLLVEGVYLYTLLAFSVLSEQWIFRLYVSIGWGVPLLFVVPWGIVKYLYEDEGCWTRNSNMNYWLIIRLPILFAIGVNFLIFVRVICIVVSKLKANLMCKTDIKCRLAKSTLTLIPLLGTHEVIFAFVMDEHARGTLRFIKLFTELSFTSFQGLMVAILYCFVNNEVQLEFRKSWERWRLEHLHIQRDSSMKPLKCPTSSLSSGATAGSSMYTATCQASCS
- method: Luciferase reporter assay, HEK293/CRE-Luc/hGLP1R (Example 17)
- Assay type: cell-based
- Design: engineered to express full-length human GLP1R, cynomolgus GLP1R; expressed in transfected cells; host or cells: HEK293/CRE-Luc
- details: HEK293/CRE-Luc/hGLP1R; relative to M2361 of the same experiment
- Excerpt: To test the activity of GLP1R agonist payloads, GLP1R agonist linker-payloads (LPs), and anti-GLP1R antibody tethered drug conjugates (ATDCs) of the invention, a cell-based cAMP responsive luciferase reporter assay was developed. To generate the assay cell line, the firefly luciferase gene was placed under the control of a cAMP response element (CRE) located upstream of a minimal promoter and transfected into HEK293 cells and referred to herein as HEK293/CRE-Luc cells. […]
Where a SMILES comes first, the peptide text is derived from it. [ ]: non-standard residue; d: D form. The star is where a group is joined. Bip(2'-Et,4'-O(CH2)4N3) = CCc1cc(OCCCCN=[N+]=[N-])ccc1-c1ccc(C[C@H](N)C(=O)O)cc1; Bip(2'-Et,4'-O(CH2)4NH2) = CCc1cc(OCCCCN)ccc1-c1ccc(C[C@H](N)C(=O)O)cc1; Malonyl(2,2-Me2,histaminyl) = CC(C)(C(=O)NCCc1cnc[nH]1)C(=O)*; Nva(5-(3,5-Me2Ph)) = Cc1cc(C)cc(CCC[C@H](N)C(=O)O)c1; Ala(1H-tetrazol-5-yl) = N[C@@H](Cc1nnn[nH]1)C(=O)O; αMePhe(2-F) = C[C@](N)(Cc1ccccc1F)C(=O)O; Desaminohistidyl = O=C(CCc1c[nH]cn1)*
readout-type: Relative Potency (% M2361 EC50) (%)
Answers are plain numbers, in %.

Sample answers from the record:
| molecule | assayed-system | reading |
| --- | --- | --- |
| CCc1cc(OCCCCN=[N+]=[N-])ccc1-c1ccc(C[C@H](NC(=O)[C@H](CC(=O)O)NC(=O)[C@H](CO)NC(=O)[C@@H](NC(=O)[C@](C)(Cc2ccccc2F)NC(=O)[C@@H](NC(=O)CNC(=O)[C@H](Cc2nn[nH]n2)NC(=O)C(C)(C)C(=O)NCCc2cnc[nH]2)[C@@H](C)O)[C@@H](C)O)C(=O)N[C@@H](CCCc2cc(C)cc(C)c2)C(N)=O)cc1 [M2361] ({Malonyl(2,2-Me2,histaminyl)}-[Ala(1H-tetrazol-5-yl)]GT[αMePhe(2-F)]TSD[Bip(2'-Et,4'-O(CH2)4N3)][Nva(5-(3,5-Me2Ph))]-NH2) | human GLP1R (Homo sapiens, UniProt P43220) | 100.0 |
| CCc1cc(OCCCCN)ccc1-c1ccc(C[C@H](NC(=O)[C@H](CC(=O)O)NC(=O)[C@H](CO)NC(=O)[C@@H](NC(=O)[C@](C)(Cc2ccccc2F)NC(=O)[C@@H](NC(=O)CNC(=O)[C@H](Cc2nn[nH]n2)NC(=O)[C@@]2(C)CCN(CCc3cnc[nH]3)C2=O)[C@@H](C)O)[C@@H](C)O)C(=O)N[C@@H](CCCc2cc(C)cc(C)c2)C(N)=O)cc1 | human GLP1R (Homo sapiens, UniProt P43220) | 40.3 |
| CCc1cc(OCCCCNC(=O)[C@H](CO)NC(=O)CNC(=O)CNC(=O)CNC(=O)CN)ccc1-c1ccc(C[C@H](NC(=O)[C@H](CC(=O)O)NC(=O)[C@H](CO)NC(=O)[C@@H](NC(=O)[C@](C)(Cc2ccccc2F)NC(=O)[C@@H](NC(=O)CNC(=O)[C@H](Cc2nn[nH]n2)NC(=O)C(C)(C)C(=O)NCCc2cnc[nH]2)[C@@H](C)O)[C@@H](C)O)C(=O)N[C@@H](CCCc2cc(C)cc(C)c2)C(N)=O)cc1 | human GLP1R (Homo sapiens, UniProt P43220) | 193.4 |
| CCc1cc(OCCCCN=[N+]=[N-])ccc1-c1ccc(C[C@H](NC(=O)[C@H](CC(=O)O)NC(=O)[C@H](CO)NC(=O)[C@@H](NC(=O)[C@](C)(Cc2ccccc2F)NC(=O)[C@@H](NC(=O)CNC(=O)[C@@H](N)Cc2nn[nH]n2)[C@@H](C)O)[C@@H](C)O)C(=O)N[C@@H](CCCc2cc(C)cc(C)c2)C(N)=O)cc1 [M2383] (H-[Ala(1H-tetrazol-5-yl)]GT[αMePhe(2-F)]TSD[Bip(2'-Et,4'-O(CH2)4N3)][Nva(5-(3,5-Me2Ph))]-NH2) | human GLP1R (Homo sapiens, UniProt P43220) | 0.0 |

Recorded result, CCc1cc(OCCCCN)ccc1-c1ccc(C[C@H](NC(=O)[C@H](CC(=O)O)NC(=O)[C@H](CO)NC(=O)[C@@H](NC(=O)[C@](C)(Cc2ccccc2F)NC(=O)[C@@H](NC(=O)CNC(=O)[C@H](Cc2nn[nH]n2)NC(=O)CNC(=O)CCc2cnc[nH]2)[C@@H](C)O)[C@@H](C)O)C(=O)N[C@@H](CCCc2cc(C)cc(C)c2)C(N)=O)cc1 [P12] (Desaminohistidyl-G[Ala(1H-tetrazol-5-yl)]GT[αMePhe(2-F)]TSD[Bip(2'-Et,4'-O(CH2)4NH2)][Nva(5-(3,5-Me2Ph))]-NH2) , Relative Potency (% M2361 EC50): 46.5
